# TARGET_ENTITY: Factor Xa (Homo sapiens (Human))
# Sequence (P00742 235-488): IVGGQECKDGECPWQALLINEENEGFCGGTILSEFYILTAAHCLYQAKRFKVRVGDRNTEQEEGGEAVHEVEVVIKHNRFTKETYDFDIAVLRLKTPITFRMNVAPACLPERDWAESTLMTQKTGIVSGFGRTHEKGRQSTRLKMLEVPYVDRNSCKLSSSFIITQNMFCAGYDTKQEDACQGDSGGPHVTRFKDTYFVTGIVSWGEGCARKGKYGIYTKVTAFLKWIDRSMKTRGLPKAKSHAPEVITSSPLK
# Sequence (P00742 41-179 partner): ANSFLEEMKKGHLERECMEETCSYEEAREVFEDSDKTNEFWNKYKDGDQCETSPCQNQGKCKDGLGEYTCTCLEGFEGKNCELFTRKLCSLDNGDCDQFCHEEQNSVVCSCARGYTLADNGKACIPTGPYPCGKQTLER
# MEASUREMENT_PROTOCOL: Dose response assay for protease inhibitors: Factor Xa
# Type: biochemical
# MEASUREMENT_CONDITIONS: selectivity, Factor Xa over Factor XIa
METRIC_NAME: Ratio: FXa/FXIa

# COMPOUND_STRUCTURE, METRIC_NAME, REPORTED_VALUE
measured = [
    ("CC[C@@H](NC(=O)N1C(=O)[C@H](Cc2cc(C)nc(NC)c2)[C@H]1C(=O)N(C)c1nccn1C)c1cccc(Cl)c1", "Ratio: FXa/FXIa", "I (“I” indicates > 500)"),
    ("CC[C@@H](NC(=O)N1C(=O)[C@H](Cc2ccnc(N)c2)[C@H]1C(=O)N(C)c1nccn1C)c1ccccc1", "Ratio: FXa/FXIa", "I (“I” indicates > 500)"),
    ("CC(C)[C@@H](NC(=O)N1C(=O)[C@H](Cc2ccnc(N)c2)[C@H]1C(=O)N(C)c1ccn(C)n1)C1CCCCC1", "Ratio: FXa/FXIa", "I (“I” indicates > 500)"),
]

---

# TARGET_ENTITY: Thrombin (Homo sapiens (Human), UniProt P00734)
# MEASUREMENT_PROTOCOL: Dose response assay for protease inhibitors: thrombin
# Format: biochemical
# MEASUREMENT_CONDITIONS: selectivity, thrombin over Factor XIa
METRIC_NAME: Ratio: Thrombin/FXIa

# COMPOUND, REPORTED_VALUE
records = [
    ("CC[C@@H](NC(=O)N1C(=O)[C@H](Cc2ccnc(N)c2)[C@H]1C(=O)N(C)c1cnn(C)c1)c1ccccc1", "G (“G” indicates 1-100)"),
    ("CN(C(=O)[C@@H]1[C@@H](Cc2ccnc(N)c2)C(=O)N1C(=O)NC(c1cccc(Cl)c1)C(F)(F)F)c1ccn(C)n1 (stereo in doubt)", "G (“G” indicates 1-100)"),
]

---

# TARGET_ENTITY: Factor XIa (Homo sapiens (Human))
# Sequence (P03951 388-625): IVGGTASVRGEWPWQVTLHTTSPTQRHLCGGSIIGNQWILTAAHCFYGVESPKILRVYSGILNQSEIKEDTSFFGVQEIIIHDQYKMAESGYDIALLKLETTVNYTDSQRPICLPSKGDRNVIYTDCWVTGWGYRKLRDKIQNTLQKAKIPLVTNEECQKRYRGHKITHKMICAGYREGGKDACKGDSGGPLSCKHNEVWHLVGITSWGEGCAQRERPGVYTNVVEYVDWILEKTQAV
# Sequence (P03951 19-387 partner): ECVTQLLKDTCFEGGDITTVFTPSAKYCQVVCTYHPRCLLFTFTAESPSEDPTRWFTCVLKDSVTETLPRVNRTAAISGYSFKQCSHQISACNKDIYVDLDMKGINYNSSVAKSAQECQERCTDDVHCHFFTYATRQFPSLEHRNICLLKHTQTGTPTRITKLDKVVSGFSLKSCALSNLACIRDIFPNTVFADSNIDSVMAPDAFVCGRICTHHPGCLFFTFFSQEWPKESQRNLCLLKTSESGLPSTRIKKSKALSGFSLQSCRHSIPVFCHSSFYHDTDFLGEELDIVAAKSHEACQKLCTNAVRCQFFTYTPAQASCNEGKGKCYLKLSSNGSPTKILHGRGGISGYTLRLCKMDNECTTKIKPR
pIC50: −log10 of the molar value.
METRIC_NAME: pIC50

# COMPOUND, METRIC_NAME, REPORTED_VALUE
records = [
    ("CC[C@@H](NC(=O)N1C(=O)[C@H](Cc2ccnc(N)c2)[C@H]1C(=O)N(C)c1ccn(C)n1)c1ccc(F)c(C)c1F", "pIC50", "> 8.00"),
]

[Q] What does the data say about its pIC50? Entry: CC[C@@H](NC(=O)N1C(=O)[C@H](Cc2ccnc(N)c2)[C@H]1C(=O)N(C)c1ccnn1C)c1cc(F)c(F)c(F)c1
[A] > 8.00

[Q] If you can, please state the reported pIC50 value of CC[C@@H](NC(=O)N1C(=O)[C@H](Cc2cc(C)nc(N)c2)[C@H]1C(=O)N(C)c1cnn(C)c1)c1cc(C)cc(C)c1 .
[A] > 8.00

[Q] Query: pIC50; subject: CC[C@@H](NC(=O)N1C(=O)[C@H](Cc2cc(C)nc(N)c2)[C@H]1C(=O)N(C)c1ccnn1C)c1cccc(F)c1F
[A] > 8.00

[Q] If you can, please state the reported pIC50 value of CC[C@@H](NC(=O)N1C(=O)[C@H](Cc2cc(C)nc(N)c2)[C@H]1C(=O)N(C)c1cnn(C)c1)c1ccc(Cl)cc1 .
[A] 7.00 to 8.00

[Q] Requested field: pIC50. Item: CN(C(=O)[C@@H]1[C@@H](Cc2ccnc(N)c2)C(=O)N1C(=O)NC(C1CCCCC1)C(F)(F)F)c1ccnn1C (stereo in doubt)
[A] 7.00 to 8.00

[Q] Param item = CC[C@@H](NC(=O)N1C(=O)[C@H](Cc2cc(C)nc(N)c2)[C@H]1C(=O)N(C)c1nccn1C)c1ccc(F)cc1 ; retrieve measured pIC50.
[A] > 8.00

[Q] For CC(C)[C@@H](NC(=O)N1C(=O)[C@H](Cc2ccnc(N)c2)[C@H]1C(=O)N(C)c1ccn(C)n1)C1CCCCC1 , what is its reported pIC50?
[A] 7.00 to 8.00

[Q] Dear colleague, I am looking for the recorded pIC50 of the following compound: CC[C@@H](NC(=O)N1C(=O)[C@H](Cc2cc(C)nc(N)c2)[C@H]1C(=O)N(C)c1cn(C)cn1)C1CCCCC1
[A] 7.00 to 8.00

[Q] Entry under review: CC[C@H](c1cccc(Cl)c1)N(C)C(=O)N1C(=O)[C@H](Cc2ccnc(N)c2)[C@H]1C(=O)N(C)c1ccn(C)n1 . Reported pIC50?
[A] 7.00 to 8.00

[Q] Dear colleague, I am looking for the recorded pIC50 of the following compound: CC[C@@H](NC(=O)N1C(=O)[C@H](Cc2ccnc(N)c2)[C@H]1C(=O)N(C)c1cnn(C)c1)c1ccc(C)nc1
[A] 7.00 to 8.00

Source listed as patent US11691962B2.
